# Test system: K. pneumoniae NVT1001 strains with carbapenemase plasmids
# Method summary: Etest MIC of β-lactams, OmpK35/36 loss, ΔramR and/or carbapenemase (Table 9)
# Type: cell-based, Klebsiella pneumoniae
# Condition set: Klebsiella pneumoniae, KPC-3 on pACYC177; WT (NVT1001); read-out: MIC
# key: entry, value: log10 of MIC
Metric name: log10 of MIC (log10 of the value in µg/mL)

# Molecule, log10 of MIC
data = [
    ("C[C@@H](O)[C@H]1C(=O)N2C(C(=O)O)=C(SCCN=CN)C[C@H]12 [Imipenem]", 1.51),
    ("CO/N=C(\\C(=O)N[C@@H]1C(=O)N2C(C(=O)[O-])=C(C[N+]3(C)CCCC3)CS[C@H]12)c1csc(N)n1 [Cefepime]", 2.11),
    ("CC(C)(O/N=C(\\C(=O)N[C@@H]1C(=O)N2C(C(=O)[O-])=C(C[n+]3ccccc3)CS[C@H]12)c1csc(N)n1)C(=O)O [Ceftazidime]", 2.11),
    ("C[C@@H](O)[C@H]1C(=O)N2C(C(=O)O)=C(S[C@@H]3CN[C@H](CNS(N)(=O)=O)C3)[C@H](C)[C@H]12 [Doripenem]", 0.90),
    ("CO[C@@]1(NC(=O)Cc2cccs2)C(=O)N2C(C(=O)O)=C(COC(N)=O)CS[C@@H]21 [Cefoxitin]", 1.20),
    ("CCO/N=C(\\C(=O)N[C@@H]1C(=O)N2C(C(=O)[O-])=C(Sc3nc(-c4cc[n+](C)cc4)cs3)CS[C@H]12)c1nsc(N)n1 [Ceftaroline]", 2.41),
    ("CO/N=C(\\C(=O)N[C@@H]1C(=O)N2C(C(=O)O)=C(COC(C)=O)CS[C@H]12)c1csc(N)n1 [Cefotaxime]", 2.11),
    ("C[C@@H](O)[C@H]1C(=O)N2C(C(=O)O)=C(S[C@@H]3CN[C@H](C(=O)N(C)C)C3)[C@H](C)[C@H]12 [Meropenem]", 1.20),
    ("C[C@@H](O)[C@H]1C(=O)N2C(C(=O)O)=C(S[C@@H]3CN[C@H](C(=O)Nc4cccc(C(=O)O)c4)C3)[C@H](C)[C@H]12 [Ertapenem]", 1.51),
]

---

# key: entry, value: MIC
# System: K. pneumoniae NVT1001 and ΔramR strains with tet resistance gene plasmids
# Method summary: Etest MIC of tetracyclines, AcrAB-TolC overexpression (ΔramR) and/or tet resistance gene (Table 14)
# Type: cell-based, Klebsiella pneumoniae
# Condition set: Klebsiella pneumoniae, NVT1001, Tet(A) on pACYC177; read-out: MIC
Metric name: MIC

# Compound structure, Result
rows = [
    ("CN(C)[C@@H]1C(O)=C(C(N)=O)C(=O)[C@@]2(O)C(O)=C3C(=O)c4c(O)cccc4[C@@](C)(O)[C@H]3C[C@@H]12", "> 256 µg/mL"),
    ("CN(C)c1cc(NC(=O)CNC(C)(C)C)c(O)c2c1C[C@H]1C[C@H]3[C@H](N(C)C)C(O)=C(C(N)=O)C(=O)[C@@]3(O)C(O)=C1C2=O", "8 µg/mL"),
    ("C[C@H]1c2cccc(O)c2C(=O)C2=C(O)[C@]3(O)C(=O)C(C(N)=O)=C(O)[C@@H](N(C)C)[C@@H]3[C@@H](O)[C@@H]21", "> 256 µg/mL"),
    ("CN(C)c1ccc(O)c2c1C[C@H]1C[C@H]3[C@H](N(C)C)C(O)=C(C(N)=O)C(=O)[C@@]3(O)C(O)=C1C2=O", "32 µg/mL"),
]

---

# Tested on: K. pneumoniae NVT1001 strains with ESBL or AmpC β-lactamase plasmids
# Method summary: Etest MIC of β-lactams, OmpK35/36 loss, ΔramR and/or extended-spectrum β-lactamase and AmpC β-lactamase (Table 8)
# Format: cell-based, Klebsiella pneumoniae
# Condition set: Klebsiella pneumoniae, SHV-12 on pACYC177; ΔramRΔ35 (ΔramRΔompK35 mutant)
# key: entry, value: MIC
Metric name: MIC

# Compound structure, Result
rows = [
    ("CCO/N=C(\\C(=O)N[C@@H]1C(=O)N2C(C(=O)[O-])=C(Sc3nc(-c4cc[n+](C)cc4)cs3)CS[C@H]12)c1nsc(N)n1", "16 µg/mL"),
    ("CC(=O)OCC1=C(C(=O)O)N2C(=O)[C@@H](NC(=O)Cc3cccs3)[C@H]2SC1", "> 256 µg/mL"),
    ("C[C@@H](O)[C@H]1C(=O)N2C(C(=O)O)=C(S[C@@H]3CN[C@H](CNS(N)(=O)=O)C3)[C@H](C)[C@H]12", "0.06 µg/mL"),
    ("CO[C@@]1(NC(=O)Cc2cccs2)C(=O)N2C(C(=O)O)=C(COC(N)=O)CS[C@@H]21", "64 µg/mL"),
]

---

# Test system: K. pneumoniae NVT1001 and its ΔompK35/36 and/or ΔramR mutants
# Method summary: Etest MIC, OmpK35/36 loss and AcrAB-TolC overexpression (ΔramR) strains (Table 6)
# Type: cell-based, Klebsiella pneumoniae
# Condition set: Klebsiella pneumoniae, Δ35/36, ΔompK35/36 mutant
# key: entry, value: MIC

# Compound structure, Experimental target, MIC, µg/mL
records = [
    ("C[C@@H](O)[C@H]1C(=O)N2C(C(=O)O)=C(SCCN=CN)C[C@H]12", "K. pneumoniae NVT1001 and its ΔompK35/36 and/or ΔramR mutants", 0.5),
    ("C[C@@H](O)[C@H]1C(=O)N2C(C(=O)O)=C(S[C@@H]3CN[C@H](C(=O)N(C)C)C3)[C@H](C)[C@H]12", "K. pneumoniae NVT1001 and its ΔompK35/36 and/or ΔramR mutants", 0.5),
    ("CO[C@@]1(NC(=O)Cc2cccs2)C(=O)N2C(C(=O)O)=C(COC(N)=O)CS[C@@H]21", "K. pneumoniae NVT1001 and its ΔompK35/36 and/or ΔramR mutants", 128),
    ("NC[C@H]1O[C@H](O[C@H]2[C@H](O)[C@@H](O[C@H]3O[C@H](CO)[C@@H](O)[C@H](N)[C@H]3O)[C@H](N)C[C@@H]2N)[C@H](N)C[C@@H]1O", "K. pneumoniae NVT1001 and its ΔompK35/36 and/or ΔramR mutants", 0.5),
    ("CCn1cc(C(=O)O)c(=O)c2ccc(C)nc21", "K. pneumoniae NVT1001 and its ΔompK35/36 and/or ΔramR mutants", 8),
    ("CN[C@@H]1[C@H](O)[C@H](NC)[C@H]2O[C@@]3(O)C(=O)C[C@@H](C)O[C@H]3O[C@@H]2[C@H]1O", "K. pneumoniae NVT1001 and its ΔompK35/36 and/or ΔramR mutants", 16),
    ("C[C@@H]1O[C@@H]1P(=O)(O)O", "K. pneumoniae NVT1001 and its ΔompK35/36 and/or ΔramR mutants", 512),
    ("COc1cc(Cc2cnc(N)nc2N)cc(OC)c1OC", "K. pneumoniae NVT1001 and its ΔompK35/36 and/or ΔramR mutants", 2),
]

---

# Tested on: A. baumannii KW1 strains with aminoglycoside resistance plasmids
# Method summary: Etest MIC of aminoglycosides, aminoglycoside-modifying enzyme or 16S rRNA methylase (Table 19)
# Type: cell-based, Acinetobacter baumannii
# Condition set: KW1, no supplemental plasmid
# key: entry, value: MIC
Metric name: MIC (µg/mL)

# Compound structure, Experimental target, Unit text, Result number
measured = [
    ("CCN[C@@H]1C[C@H](N)[C@@H](O[C@H]2OC(CN)=CC[C@H]2N)[C@H](O)[C@H]1O[C@H]1OC[C@](C)(O)[C@H](NC)[C@H]1O", "A. baumannii KW1 strains with aminoglycoside resistance plasmids", "µg/mL", 1.5),
    ("NC[C@H]1O[C@H](O[C@H]2[C@H](O)[C@@H](O[C@H]3O[C@H](CO)[C@@H](O)[C@H](N)[C@H]3O)[C@H](N)C[C@@H]2N)[C@H](N)C[C@@H]1O", "A. baumannii KW1 strains with aminoglycoside resistance plasmids", "µg/mL", 0.5),
    ("NC[C@@H]1O[C@@H](O[C@H]2[C@H](O)[C@@H](O[C@H]3O[C@H](CO)[C@@H](O)[C@H](N)[C@H]3O)[C@H](N)C[C@@H]2N)[C@@H](O)[C@H](O)[C@H]1O", "A. baumannii KW1 strains with aminoglycoside resistance plasmids", "µg/mL", 2),
    ("CN[C@@H]1[C@H](O)[C@H](NC)[C@H]2O[C@@]3(O)C(=O)C[C@@H](C)O[C@H]3O[C@@H]2[C@H]1O", "A. baumannii KW1 strains with aminoglycoside resistance plasmids", "µg/mL", 24),
    ("NCC[C@H](O)C(=O)N[C@@H]1C[C@H](N)[C@@H](O[C@H]2O[C@H](CN)[C@@H](O)[C@H](O)[C@H]2O)[C@H](O)[C@H]1O[C@H]1O[C@H](CO)[C@@H](O)[C@H](N)[C@H]1O", "A. baumannii KW1 strains with aminoglycoside resistance plasmids", "µg/mL", 2),
    ("CN[C@@H]1[C@H](O[C@H]2[C@H](O[C@H]3[C@H](O)[C@@H](O)[C@H](N=C(N)N)[C@@H](O)[C@@H]3N=C(N)N)O[C@@H](C)[C@]2(O)C=O)O[C@@H](CO)[C@H](O)[C@H]1O", "A. baumannii KW1 strains with aminoglycoside resistance plasmids", "µg/mL", 12),
]
